Provenance of the data: PubChem BioAssay AID1030

test-system: Aldehyde dehydrogenase 1A1 (Homo sapiens)
assay-procedure: qHTS Assay for Inhibitors of Aldehyde Dehydrogenase 1 (ALDH1A1)
test-conditions: Purified ALDH1A1, NADH fluorescence, propionaldehyde substrate; series mostly up to 75.3 µM
The whole screen tested about 220,000 compounds, of which about 16,000 (7.3%) were called active. Another 25% or so got no clear call; they are omitted. The call rests on the fitted dose curve; in most records, active means well fitted inhibition curve with a large enough effect (not every such curve was filed as active); inconclusive means small, poorly fitted or top-dose-only effect, or another doubt; inactive means no such curve, though single readings can be large or run the other way. What follows is part of a selection rich in actives, with near analogues and random picks from the rest.
Would you mind answering with one of these outcomes? label 1 = active, label 0 = inactive

[[record]]
compound = "Cc1cc(Cl)ccc1NC(=S)NCCCN1CCCC1=O"
label_class = "label 0"

[[record]]
compound = "CCOC(=O)c1c(NC(=O)/C=C/c2ccco2)sc(C)c1C"
label_class = "label 0"


## Input In this assay, the call recorded for CCCCN1C(=O)c2ccc(C(=O)Nc3ccc(S(=O)(=O)N(C)C)cc3)cc2C1=O was what?
## Output label 1

## Input Identify the outcome logged in this assay for the compound shown: Cc1cc2c(cc1C)[n+](C)cn2CC(O)COCC1CC=CCC1 (centres undefined)
## Output label 0

## Input // param item: O=C(COC(=O)c1ccc(O)cc1)Nc1nccs1 ; yields the recorded call
## Output label 0

## Input // param item: Nc1nnc(SCC(=O)NC2CCCc3ccccc32)s1 (centres undefined) ; yields the recorded call
## Output label 0

## Input Could you please tell me the result logged for Cc1cc(C)cc(NC(=O)COC(=O)c2cc(C)oc2C)c1 in this assay?
## Output label 0

## Input GET /call?item= COc1ccc(/C=N/NC(=O)C(C)N(c2ccc(OC)cc2)S(C)(=O)=O)cc1 (centres undefined) returns the recorded outcome of this test.
## Output label 0

## Input How was Cn1c(=O)c2c(ncn2CC(=O)N/N=C/c2cn[nH]c2-c2ccc(F)cc2)n(C)c1=O classified in this test?
## Output label 0

## Input I would be grateful if you could indicate the recorded call for O=c1cnnc(Nc2ccccc2F)[nH]1 .
## Output label 0

## Input How did this test come out for Cc1cc(C(F)(F)F)c(C#N)c(SCC(=O)NC2CC2)n1 ?
## Output label 0

## Input In this assay, the call recorded for CN(C)c1ccc(/C=N\S(=O)(=O)c2ccccc2)cc1 was what?
## Output label 1

## Input Assay result, entry CCOC(=O)c1sc(NC(=O)CSc2n[nH]c(CC)n2)nc1C — outcome?
## Output label 0

## Input Test call, this compound: Cc1nonc1NC(=O)CSc1nc2ccccc2cc1C#N
## Output label 0

## Input For CCN(CC)CCCSc1nc2ccccc2s1 , what call appears in the results of this test?
## Output label 0

## Input Short answer needed: outcome of this test for CCN(CC)C(=O)c1sc(NC(=O)c2ccco2)c(C#N)c1C ?
## Output label 0

## Input # fetch the recorded call for O=C(CCCN1C(=O)CCC1=O)Nc1ccc(Cl)c(C(F)(F)F)c1 here
## Output label 0
